Data provenance is ChEMBL document CHEMBL6087482.

Experiment: Cmax in Sprague-Dawley rat at 3 mg/kg, po or 0.1 mg/kg, iv measured after 24 hrs by LC-MS/MS analysis
Assay type: ADME, organism-based
Details: in vivo
METRIC: Cmax (nM)

>  <CPD_SMILES>
Cc1cnc(-c2nc3c(F)c(-c4cccc5ccc(F)cc45)c(CCC#N)cc3c3c2cc([C@@H](C)N2CCOCC2=O)n3[C@H]2[C@H]3CN[C@@H]2C3)cn1

>  <SCALE_UNIT>
nM

>  <DATA_VALUE>
24

$$$$

---

Biological target: Cytochrome P450 3A4 (Homo sapiens)
Sequence (P08684 whole entry): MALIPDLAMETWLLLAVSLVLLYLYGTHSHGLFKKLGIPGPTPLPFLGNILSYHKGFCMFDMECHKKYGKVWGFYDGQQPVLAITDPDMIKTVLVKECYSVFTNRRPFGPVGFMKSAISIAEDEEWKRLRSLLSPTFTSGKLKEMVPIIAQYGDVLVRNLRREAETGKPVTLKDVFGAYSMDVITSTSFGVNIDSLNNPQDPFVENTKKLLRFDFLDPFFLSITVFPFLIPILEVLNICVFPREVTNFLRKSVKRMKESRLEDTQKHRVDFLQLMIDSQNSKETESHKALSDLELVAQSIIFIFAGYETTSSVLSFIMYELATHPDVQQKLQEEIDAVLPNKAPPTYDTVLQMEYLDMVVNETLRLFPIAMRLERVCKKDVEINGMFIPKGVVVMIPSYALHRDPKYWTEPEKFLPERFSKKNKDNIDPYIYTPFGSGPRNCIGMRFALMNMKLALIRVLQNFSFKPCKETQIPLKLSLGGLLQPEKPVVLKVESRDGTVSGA
pIC50: −log10 of the molar value.

>  <CPD_SMILES>
Cc1cnc(-c2nc3c(F)c(-c4cccc(Cl)c4C)c(CCC#N)cc3c3c2cc([C@@H](C)N2CCOCC2=O)n3[C@H]2[C@H]3CN[C@@H]2C3)cn1

>  <pIC50>
4.77

$$$$

---

Test: Cmax in Non human primate at 2.0 mg/kg, po or 0.5 mg/kg, iv
Format: ADME, organism-based
Conditions: primates, in vivo
METRIC: Cmax

>  <CPD_SMILES>
Cc1cc(-c2nc3c(F)c(-c4cccc5ccc(F)cc45)c(CCC#N)cc3c3c2cc(CN2CCOCC2=O)n3[C@H]2[C@H]3CN[C@@H]2C3)ccn1

>  <METRIC>
Cmax

>  <DATA_VALUE>
2.5 nM

$$$$

---

Assay: Efflux ratio of apparent permeability in human Caco-2 cells at 50 uM incubated for 120 mins by LC-MS analysis
Type: ADME, cell-based

>  <CPD_SMILES>
N#CCCc1cc2c(nc(-c3ccncn3)c3cc(CN4CCOCC4=O)n([C@H]4[C@H]5CN[C@@H]4C5)c32)c(F)c1-c1cccc2ccc(F)cc12

>  <efflux ratio at 2 h, 50 µM>
20

$$$$

---

Experiment: Apparent permeability across apical to basolateral side in human Caco-2 cells at 50 uM incubated for 120 mins by LC-MS analysis
Assay type: ADME, cell-based
// reported Papp A→B at 2 h, 50 µM per item
METRIC: Papp A→B at 2 h, 50 µM

>  <CPD_SMILES>
Cc1cnc(-c2nc3c(F)c(-c4cccc5ccc(F)cc45)c(CCC#N)cc3c3c2cc([C@@H](C)N2CCOCC2=O)n3[C@H]2[C@H]3CN[C@@H]2C3)cn1

>  <METRIC>
Papp A→B at 2 h, 50 µM

>  <DATA_VALUE>
1.4 ×10⁻⁶ cm/s

$$$$
>  <CPD_SMILES>
Cc1nc2c(F)c(-c3cccc4ccc(F)cc34)c(CCC#N)cc2c2c1cc(CN1CCOCC1=O)n2[C@H]1[C@H]2CN[C@@H]1C2

>  <METRIC>
Papp A→B at 2 h, 50 µM

>  <DATA_VALUE>
0.7 ×10⁻⁶ cm/s

$$$$
>  <CPD_SMILES>
CCOc1nc2c(F)c(-c3cc(O)cc4ccccc34)c(CCC#N)cc2c2c1cc(CN1CCCCC1=O)n2[C@H]1[C@H]2CN[C@@H]1C2

>  <METRIC>
Papp A→B at 2 h, 50 µM

>  <DATA_VALUE>
0.2 ×10⁻⁶ cm/s

$$$$
>  <CPD_SMILES>
N#CCCc1cc2c(nc(-c3ccncn3)c3cc(CN4CCOCC4=O)n([C@H]4[C@H]5CN[C@@H]4C5)c32)c(F)c1-c1cccc2ccc(F)cc12

>  <METRIC>
Papp A→B at 2 h, 50 µM

>  <DATA_VALUE>
1.1 ×10⁻⁶ cm/s

$$$$
>  <CPD_SMILES>
Cc1cnc(-c2nc3c(F)c(-c4cccc(Cl)c4C)c(CCC#N)cc3c3c2cc([C@@H](C)N2CCOCC2=O)n3[C@H]2[C@H]3CN[C@@H]2C3)cn1

>  <METRIC>
Papp A→B at 2 h, 50 µM

>  <DATA_VALUE>
3.6 ×10⁻⁶ cm/s

$$$$
>  <CPD_SMILES>
CCOc1nc2c(F)c(-c3cc(O)cc4ccccc34)c(CCC#N)cc2c2c1cc(CCC(=O)N(C)C)n2[C@H]1[C@H]2CN[C@@H]1C2

>  <METRIC>
Papp A→B at 2 h, 50 µM

>  <DATA_VALUE>
0.2 ×10⁻⁶ cm/s

$$$$
>  <CPD_SMILES>
CN(C)C(=O)CCc1cc2c(OC[C@@]34CCCN3C[C@H](F)C4)nc3c(F)c(-c4cc(O)cc5ccccc45)c(CCC#N)cc3c2n1[C@H]1[C@H]2CN[C@@H]1C2

>  <METRIC>
Papp A→B at 2 h, 50 µM

>  <DATA_VALUE>
< 0.1 ×10⁻⁶ cm/s

$$$$
>  <CPD_SMILES>
N#CCCc1cc2c(nc(-n3cncn3)c3cc(CN4CCOCC4=O)n([C@H]4[C@H]5CN[C@@H]4C5)c32)c(F)c1-c1cccc2ccc(F)cc12

>  <METRIC>
Papp A→B at 2 h, 50 µM

>  <DATA_VALUE>
1.7 ×10⁻⁶ cm/s

$$$$
>  <CPD_SMILES>
Cc1cc(-c2nc3c(F)c(-c4cccc5ccc(F)cc45)c(CCC#N)cc3c3c2cc([C@@H](C)N2CCOCC2=O)n3[C@H]2[C@H]3CN[C@@H]2C3)ccn1

>  <METRIC>
Papp A→B at 2 h, 50 µM

>  <DATA_VALUE>
0.6 ×10⁻⁶ cm/s

$$$$
>  <CPD_SMILES>
Cc1cc(-c2nc3c(F)c(-c4cccc5ccc(F)cc45)c(CCC#N)cc3c3c2cc(CN2CCOCC2=O)n3[C@H]2[C@H]3CN[C@@H]2C3)ccn1

>  <METRIC>
Papp A→B at 2 h, 50 µM

>  <DATA_VALUE>
1.6 ×10⁻⁶ cm/s

$$$$
>  <CPD_SMILES>
Cc1nc2c(F)c(-c3cccc4ccc(F)cc34)c(CCC#N)cc2c2c1cc(CN1CCCCC1=O)n2[C@H]1[C@H]2CN[C@@H]1C2

>  <METRIC>
Papp A→B at 2 h, 50 µM

>  <DATA_VALUE>
0.7 ×10⁻⁶ cm/s

$$$$

---

Experiment: AUC in Sprague-Dawley rat at 3 mg/kg, po or 0.1 mg/kg, iv measured after 24 hrs by LC-MS/MS analysis
Format: ADME, organism-based
Conditions: in vivo
METRIC: AUC at 24 h (µM·h)

>  <CPD_SMILES>
Cc1cnc(-c2nc3c(F)c(-c4cccc5ccc(F)cc45)c(CCC#N)cc3c3c2cc([C@@H](C)N2CCOCC2=O)n3[C@H]2[C@H]3CN[C@@H]2C3)cn1

>  <DATA_VALUE>
0.085

$$$$

---

Experiment: Half-life in Non human primate at 2.0 mg/kg, po or 1 mg/kg, iv
Type: ADME, organism-based
Details: primates, in vivo
METRIC: half-life (min)

>  <CPD_SMILES>
Cc1cnc(-c2nc3c(F)c(-c4cccc5ccc(F)cc45)c(CCC#N)cc3c3c2cc([C@@H](C)N2CCOCC2=O)n3[C@H]2[C@H]3CN[C@@H]2C3)cn1

>  <SCALE_UNIT>
min

>  <DATA_VALUE>
294

$$$$

---

Assay: Solubility of compound in FASSIF
Format: physicochemical
METRIC: solubility

>  <CPD_SMILES>
Cc1cnc(-c2nc3c(F)c(-c4cccc(Cl)c4C)c(CCC#N)cc3c3c2cc([C@@H](C)N2CCOCC2=O)n3[C@H]2[C@H]3CN[C@@H]2C3)cn1

>  <METRIC>
solubility

>  <DATA_VALUE>
> 79 µg/mL

$$$$

---

Molecular target: GTPase KRas (Homo sapiens)
Sequence (P01116 whole entry): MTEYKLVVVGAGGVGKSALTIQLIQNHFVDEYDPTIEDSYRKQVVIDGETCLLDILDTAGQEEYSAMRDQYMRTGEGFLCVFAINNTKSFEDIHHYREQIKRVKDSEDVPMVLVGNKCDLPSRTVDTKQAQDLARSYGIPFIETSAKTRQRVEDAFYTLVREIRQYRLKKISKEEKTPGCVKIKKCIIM
Test: Binding affinity to KRAS (unknown origin) assessed as dissociation constant by SPR analysis
Just a reminder that ties go to condition not met: only Kd strictly below 900 pM counts as condition met.

>  <COMPOUND>
Cc1cc(-c2nc3c(F)c(-c4cccc5ccc(F)cc45)c(CCC#N)cc3c3c2cc([C@@H](C)N2CCOCC2=O)n3[C@H]2[C@H]3CN[C@@H]2C3)ccn1

>  <CATEGORY_LABEL>
condition not met

$$$$
>  <COMPOUND>
Cc1cnc(-c2nc3c(F)c(-c4cccc5ccc(F)cc45)c(CCC#N)cc3c3c2cc([C@@H](C)N2CCOCC2=O)n3[C@H]2[C@H]3CN[C@@H]2C3)cn1

>  <CATEGORY_LABEL>
condition not met

$$$$
>  <COMPOUND>
CN(C)C(=O)CCc1nc2c(N3CC(N(C)C)C3)nc3c(F)c(-c4cc(O)cc5ccccc45)c(CCC#N)cc3c2n1[C@H]1[C@H]2CN[C@@H]1C2

>  <CATEGORY_LABEL>
condition met

$$$$
>  <COMPOUND>
Cc1cc2c(nc(N3CC(N(C)C)C3)c3nc(CCC(=O)N(C)C)n([C@H]4[C@H]5CN[C@@H]4C5)c32)c(F)c1-c1cc(O)cc2ccccc12

>  <CATEGORY_LABEL>
condition not met

$$$$
>  <COMPOUND>
CN(C)C(=O)CCc1cc2c(OC[C@@]34CCCN3C[C@H](F)C4)nc3c(F)c(-c4cc(O)cc5ccccc45)c(CCC#N)cc3c2n1[C@H]1[C@H]2CN[C@@H]1C2

>  <CATEGORY_LABEL>
condition met

$$$$
>  <COMPOUND>
CN(C)C(=O)CCc1cc2c(N3CC(C)(N(C)C)C3)nc3c(F)c(-c4cc(O)cc5ccccc45)c(CCC#N)cc3c2n1[C@H]1[C@H]2CN[C@@H]1C2

>  <CATEGORY_LABEL>
condition met

$$$$
>  <COMPOUND>
CC(Oc1nc2c(F)c(-c3cc(O)cc4ccccc34)c(CCC#N)cc2c2c1cc(CCC(=O)N(C)C)n2[C@H]1[C@H]2CN[C@@H]1C2)C1CCCN1C (single isomer, unassigned)

>  <CATEGORY_LABEL>
condition met

$$$$
